assay: Circular dichroic spectrometry, percent helicity of peptides; assay type: physicochemical; details: peptide-DMPC complex 1:20 m/m
readout: Percent Helicity, Peptide/DMPC (1:20) (%)
Give bare numbers, in %.

A selection of reference data follows.
substance="LRKLRKRLLR-18A (LRKLRKRLLRDWLKAFYDKVAEKLKEAF) [hE-18A, 141-150 region of human apo E linked to class A amphipathic helical peptide 18A]" readout="Percent Helicity, Peptide/DMPC (1:20)" measurement=46.0
substance="LRRLRRRLLR-18A (an analog of human apolipoprotein E receptor binding domain) [hE-(R)18A, analog of hE-18A with Lys replaced by Arg]" readout="Percent Helicity, Peptide/DMPC (1:20)" measurement=70.8
substance="LRKMRKRLMR-18A (DOMAIN 133..142 mouse apolipoprotein E receptor binding domain; listed as Mus sp.) [mE-18A]" readout="Percent Helicity, Peptide/DMPC (1:20)" measurement=44.0

Please look at the following substance next.
IN: Please report the recorded Percent Helicity, Peptide/DMPC (1:20) for Ac-hE18A-NH2: end protected analog of hE18A (acetyl and amino groups) (Ac-LRKLRKRLLRDWLKAFYDKVAEKLKEAF-NH2) .
OUT: 74.3

src = patent US6506880B2
